# system.under.test: T1, human Chemokine-like receptor 1, CMKLR1 (ProLink (PK) tagged GPCR in PathHunter β-Arrestin cells) (human) (UniProt Q99788)
# T1 sequence: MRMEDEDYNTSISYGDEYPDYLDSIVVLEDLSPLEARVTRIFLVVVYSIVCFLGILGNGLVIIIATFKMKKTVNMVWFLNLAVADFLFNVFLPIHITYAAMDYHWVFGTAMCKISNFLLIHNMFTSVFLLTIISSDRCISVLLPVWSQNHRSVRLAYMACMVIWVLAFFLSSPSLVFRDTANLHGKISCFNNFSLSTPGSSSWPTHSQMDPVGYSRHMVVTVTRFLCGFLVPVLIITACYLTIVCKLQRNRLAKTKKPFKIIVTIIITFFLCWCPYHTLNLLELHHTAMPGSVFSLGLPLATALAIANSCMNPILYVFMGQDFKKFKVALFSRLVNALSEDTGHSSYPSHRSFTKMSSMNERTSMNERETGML
Non-standard residues stand in square brackets, D forms with d. Primed or numbered codes have the meaning given here. No end group written: not given here. *: point of attachment. PEG8′ = polyethylene glycol linker with an average of 8 ethylene glycol units; Palmitoyl = CCCCCCCCCCCCCCCC(=O)*; Tic = O=C(O)[C@@H]1Cc2ccccc2CN1; Aad = N[C@@H](CCCC(=O)O)C(=O)O; Nle = CCCC[C@H](N)C(=O)O; Nva = CCC[C@H](N)C(=O)O
readout.type: EC50, PathHunter β-Arrestin recruitment assay, agonist format

Would you please look over these solved cases?
[[record]]
binder = "{Palmitoyl-PEG8′}-[Nva]G[dY]F[Nle]P[dS]QF[dA][Tic][dA] [OK-113]"
measured = "< 0.5 nM"

[[record]]
binder = "{Palmitoyl-PEG8′}-AG[dY]F[Nle]P[dS]QFA[Tic][dS] [OK-114]"
measured = "< 0.5 nM"


# context switch: different binder, same EC50, PathHunter β-Arrestin recruitment assay, agonist format
Provide measured EC50, PathHunter β-Arrestin recruitment assay, agonist format value, entry: {Palmitoyl-PEG8′}-AG[dY]F[Nle]P[dS][Aad]FA[Tic][dA] [OK-109]
< 0.5 nM
